Would you kindly list GI50 for each of these molecules?
# Test system: SK-MEL-28
# assay_text: NCI tumour cell line growth inhibition, 48 h
Activity calls are given as the source filed them. No stated cut-off is given here; in the data, active = GI50 up to about 1.1 µM and inactive = higher.

Requested read-out GI50, target or system SK-MEL-28, entry COC(=O)c1ccc(-c2nc(C#N)c(N)o2)cc1
> 100 µM (inactive)

Requested read-out GI50, target or system SK-MEL-28, entry O=C(O)c1cc2ccccc2c(/N=N/c2c([N+](=O)[O-])cc([N+](=O)[O-])cc2S(=O)(=O)O)c1O
> 100 µM (inactive)

Requested read-out GI50, target or system SK-MEL-28, entry COc1ccccc1/C=C(\C#N)c1ccccc1
45.5 µM (inactive)

Requested read-out GI50, target or system SK-MEL-28, entry CCOC(=O)c1ccc(-c2onc(C)c2Br)[nH]1
> 100 µM (inactive)

Requested read-out GI50, target or system SK-MEL-28, entry CC(C)(C)OC(=O)N1C(OP(=O)(Oc2ccccc2)Oc2ccccc2)=COc2cccnc21
54.2 µM (inactive)

Requested read-out GI50, target or system SK-MEL-28, entry CN1Cc2c(ccc3c2OCO3)[C@@H]2[C@H](O)Cc3cc4c(cc3[C@@H]21)OCO4
4.98 µM (inactive)

Requested read-out GI50, target or system SK-MEL-28, entry C=C(C)[C@@]1(O[Si](C)(C)C)CCCC[C@@H]1CC(Sc1ccccc1)Sc1ccccc1
18.3 µM (inactive)

Requested read-out GI50, target or system SK-MEL-28, entry CC(C)=CCC/C(C)=C/C=C/C(C)=C/C1C[C@@]2(C(O)O1)[C@H](CCCO)/C(=C(/C)C=O)CC[C@]2(C)O (some centres undefined)
15.9 µM (inactive)

Requested read-out GI50, target or system SK-MEL-28, entry CC(C)=CC(=O)N(C)C1C2CN3CCC(O2)C13 (centres undefined)
> 100 µM (inactive)

From: ChEMBL document CHEMBL1201862
